Target: MBP-FoxP1dN (Mus musculus, UniProt P58462 326-579)
Sequence: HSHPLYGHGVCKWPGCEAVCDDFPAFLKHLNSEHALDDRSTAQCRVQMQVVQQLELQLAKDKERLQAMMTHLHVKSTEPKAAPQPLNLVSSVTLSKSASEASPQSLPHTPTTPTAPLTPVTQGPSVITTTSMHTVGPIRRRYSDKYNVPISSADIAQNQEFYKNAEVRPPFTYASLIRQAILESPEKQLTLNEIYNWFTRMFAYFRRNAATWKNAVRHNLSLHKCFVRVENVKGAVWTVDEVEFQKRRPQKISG
Experiment: PD-seq (MBP pull-down with sequencing); 20 mM Tris-HCl pH 7.5, 100 mM NaCl, 1.5 mM MgCl2, 0.4 uM protein, 0.1 uM dsDNA library, 30 min, room temperature, amylose pull-down; high values mean tight binding
Conditions: protein: recombinant; tags: His6-MBP; chain copies: 2; dsDNA, one strand shown
The full ranking holds about 16,000 sequences; the median of “rpm ratio (pull-down/input)” is about 0.94, and the highest 2% start at about 1.7. The sample holds the highest values, similar sequences and a random draw of the others, so the mix is not that of the screen.

| Sequence String | binding signal |
| --- | --- |
| GATGATTGTTCTCCCAGCTGATGAATTATTCCTATCGAGTAAACAAATTTTCCTAATCTTTCTGTTCAAGCGCCATCTAC | 1.08 RPM ratio (pull-down/input) |
| GATGATTGTTCTCCCAGCTGATGAATTATTGTTATCGAGTAAACAAATTTTCCTAATCTTTCTGTTCAAGCGCCATCTAC | 2.83 RPM ratio (pull-down/input) |
| GATGATTGTTCTCCCAGCTGATGAATTCTTATTATCGAGTAAACAAATTTTCCTAATCTTTCTGTTCAAGCGCCATCTAC | 1.6 RPM ratio (pull-down/input) |
| GATGATTGTTCTCCCAGCTGATGAATTATTCTTATCGAGTAAACAAATTTTCCTAATCTTTCTGTTCAAGCGCCATCTAC | 1.08 RPM ratio (pull-down/input) |
| GATGATTGTTCTCCCAGCTGATGAATTGTTGATATCGAGTAAACAAATTTTCCTAATCTTTCTGTTCAAGCGCCATCTAC | 2.16 RPM ratio (pull-down/input) |
| GATGATTGTTCTCCCAGCTGATGAATTGATGATATCGAGTAAACAAATTTTCCTAATCTTTCTGTTCAAGCGCCATCTAC | 1.21 RPM ratio (pull-down/input) |
| GATGATTGTTCTCCCAGCTGATGAATTATTCTAATCGAGTAAACAAATTTTCCTAATCTTTCTGTTCAAGCGCCATCTAC | 1.2 RPM ratio (pull-down/input) |

---

Parameter: binding signal. Scope: all listed entries.
Target: MBP-FoxP1dN (Mus musculus, UniProt P58462 326-579)
Sequence: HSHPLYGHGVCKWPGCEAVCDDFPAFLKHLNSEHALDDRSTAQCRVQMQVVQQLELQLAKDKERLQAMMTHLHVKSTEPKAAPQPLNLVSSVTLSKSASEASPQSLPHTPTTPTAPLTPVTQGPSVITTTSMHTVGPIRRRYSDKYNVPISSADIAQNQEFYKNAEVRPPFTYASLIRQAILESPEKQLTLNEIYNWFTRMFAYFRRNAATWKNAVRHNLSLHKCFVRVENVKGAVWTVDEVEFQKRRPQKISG
Test: PD-seq (MBP pull-down with sequencing); 20 mM Tris-HCl pH 7.5, 100 mM NaCl, 1.5 mM MgCl2, 0.4 uM protein, 0.1 uM dsDNA library, 30 min, room temperature, amylose pull-down; high values mean tight binding
Conditions: protein: recombinant; tags: His6-MBP; chain copies: 2; dsDNA, one strand shown
The full ranking holds about 16,000 sequences; the median of “rpm ratio (pull-down/input)” is about 0.94, and the highest 2% start at about 1.7. Many of the other results were omitted from the sample, so the highest values are more common in it than they were.

| Sequence String | binding signal |
| --- | --- |
| GATGATTGTTCTCCCAGCTGATGAATTAAATCACTCGAGTAAACAAATTTTCCTAATCTTTCTGTTCAAGCGCCATCTAC | 1.09 RPM ratio (pull-down/input) |
| GATGATTGTTCTCCCAGCTGATGAATTACCAATATCGAGTAAACAAATTTTCCTAATCTTTCTGTTCAAGCGCCATCTAC | 1.79 RPM ratio (pull-down/input) |
| GATGATTGTTCTCCCAGCTGATGAATTAGATCGGTCGAGTAAACAAATTTTCCTAATCTTTCTGTTCAAGCGCCATCTAC | 0.789 RPM ratio (pull-down/input) |
| GATGATTGTTCTCCCAGCTGATGAATTGCCCAGTTCGAGTAAACAAATTTTCCTAATCTTTCTGTTCAAGCGCCATCTAC | 0.931 RPM ratio (pull-down/input) |

---

Biological target: MBP-FoxP1dN (Mus musculus, UniProt P58462 326-579)
Sequence: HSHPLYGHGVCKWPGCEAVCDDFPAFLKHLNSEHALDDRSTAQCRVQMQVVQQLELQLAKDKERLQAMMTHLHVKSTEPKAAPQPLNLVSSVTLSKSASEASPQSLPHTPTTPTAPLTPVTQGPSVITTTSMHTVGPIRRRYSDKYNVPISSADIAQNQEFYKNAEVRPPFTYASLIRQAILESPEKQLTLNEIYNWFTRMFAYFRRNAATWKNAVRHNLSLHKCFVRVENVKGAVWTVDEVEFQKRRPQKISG
Assay: PD-seq (MBP pull-down with sequencing); 20 mM Tris-HCl pH 7.5, 100 mM NaCl, 1.5 mM MgCl2, 0.4 uM protein, 0.1 uM dsDNA library, 30 min, room temperature, amylose pull-down; high values mean tight binding
Details: protein: recombinant; tags: His6-MBP; chain copies: 2; dsDNA, one strand shown
Over roughly 16,000 sequences, “rpm ratio (pull-down/input)” has its median near 0.94; the highest 2% begin near 1.7. Many of the other results were omitted from the sample, so the highest values are more common in it than they were.
Items are presented alongside their recorded binding signal.

| Sequence String | binding signal |
| --- | --- |
| GATGATTGTTCTCCCAGCTGATGAATTGTGGGAATCGAGTAAACAAATTTTCCTAATCTTTCTGTTCAAGCGCCATCTAC | 1.08 RPM ratio (pull-down/input) |
| GATGATTGTTCTCCCAGCTGATGAATTCTCATATTCGAGTAAACAAATTTTCCTAATCTTTCTGTTCAAGCGCCATCTAC | 0.94 RPM ratio (pull-down/input) |
| GATGATTGTTCTCCCAGCTGATGAATTTTTATGTTCGAGTAAACAAATTTTCCTAATCTTTCTGTTCAAGCGCCATCTAC | 1.37 RPM ratio (pull-down/input) |
| GATGATTGTTCTCCCAGCTGATGAATTCAGGGGGTCGAGTAAACAAATTTTCCTAATCTTTCTGTTCAAGCGCCATCTAC | 0.723 RPM ratio (pull-down/input) |
| GATGATTGTTCTCCCAGCTGATGAATTCTATTCATCGAGTAAACAAATTTTCCTAATCTTTCTGTTCAAGCGCCATCTAC | 0.915 RPM ratio (pull-down/input) |
| GATGATTGTTCTCCCAGCTGATGAATTTTGTACATCGAGTAAACAAATTTTCCTAATCTTTCTGTTCAAGCGCCATCTAC | 1.22 RPM ratio (pull-down/input) |
| GATGATTGTTCTCCCAGCTGATGAATTACTTCATTCGAGTAAACAAATTTTCCTAATCTTTCTGTTCAAGCGCCATCTAC | 1.11 RPM ratio (pull-down/input) |
| GATGATTGTTCTCCCAGCTGATGAATTTGTTGATTCGAGTAAACAAATTTTCCTAATCTTTCTGTTCAAGCGCCATCTAC | 2.39 RPM ratio (pull-down/input) |
| GATGATTGTTCTCCCAGCTGATGAATTCTACACATCGAGTAAACAAATTTTCCTAATCTTTCTGTTCAAGCGCCATCTAC | 1.06 RPM ratio (pull-down/input) |
| GATGATTGTTCTCCCAGCTGATGAATTTTGTTGATCGAGTAAACAAATTTTCCTAATCTTTCTGTTCAAGCGCCATCTAC | 2.8 RPM ratio (pull-down/input) |
| GATGATTGTTCTCCCAGCTGATGAATTGTGTACATCGAGTAAACAAATTTTCCTAATCTTTCTGTTCAAGCGCCATCTAC | 2 RPM ratio (pull-down/input) |
| GATGATTGTTCTCCCAGCTGATGAATTCATATTCTCGAGTAAACAAATTTTCCTAATCTTTCTGTTCAAGCGCCATCTAC | 0.83 RPM ratio (pull-down/input) |
| GATGATTGTTCTCCCAGCTGATGAATTGTCACATTCGAGTAAACAAATTTTCCTAATCTTTCTGTTCAAGCGCCATCTAC | 1.2 RPM ratio (pull-down/input) |
| GATGATTGTTCTCCCAGCTGATGAATTGTACACATCGAGTAAACAAATTTTCCTAATCTTTCTGTTCAAGCGCCATCTAC | 2.11 RPM ratio (pull-down/input) |
| GATGATTGTTCTCCCAGCTGATGAATTGCCTAAGTCGAGTAAACAAATTTTCCTAATCTTTCTGTTCAAGCGCCATCTAC | 0.889 RPM ratio (pull-down/input) |
| GATGATTGTTCTCCCAGCTGATGAATTTGTTGTCTCGAGTAAACAAATTTTCCTAATCTTTCTGTTCAAGCGCCATCTAC | 2.42 RPM ratio (pull-down/input) |
| GATGATTGTTCTCCCAGCTGATGAATTCAACTAGTCGAGTAAACAAATTTTCCTAATCTTTCTGTTCAAGCGCCATCTAC | 0.877 RPM ratio (pull-down/input) |
| GATGATTGTTCTCCCAGCTGATGAATTCATATTGTCGAGTAAACAAATTTTCCTAATCTTTCTGTTCAAGCGCCATCTAC | 1.9 RPM ratio (pull-down/input) |
| GATGATTGTTCTCCCAGCTGATGAATTTTTTGTCTCGAGTAAACAAATTTTCCTAATCTTTCTGTTCAAGCGCCATCTAC | 0.905 RPM ratio (pull-down/input) |
| GATGATTGTTCTCCCAGCTGATGAATTGTTGTCTTCGAGTAAACAAATTTTCCTAATCTTTCTGTTCAAGCGCCATCTAC | 2.29 RPM ratio (pull-down/input) |
| GATGATTGTTCTCCCAGCTGATGAATTGTTTTGTTCGAGTAAACAAATTTTCCTAATCTTTCTGTTCAAGCGCCATCTAC | 1.97 RPM ratio (pull-down/input) |
| GATGATTGTTCTCCCAGCTGATGAATTGTTTGTCTCGAGTAAACAAATTTTCCTAATCTTTCTGTTCAAGCGCCATCTAC | 2.6 RPM ratio (pull-down/input) |
| GATGATTGTTCTCCCAGCTGATGAATTTTTTGATTCGAGTAAACAAATTTTCCTAATCTTTCTGTTCAAGCGCCATCTAC | 1.02 RPM ratio (pull-down/input) |
| GATGATTGTTCTCCCAGCTGATGAATTATGTTTTTCGAGTAAACAAATTTTCCTAATCTTTCTGTTCAAGCGCCATCTAC | 2.19 RPM ratio (pull-down/input) |
| GATGATTGTTCTCCCAGCTGATGAATTGTCTTCTTCGAGTAAACAAATTTTCCTAATCTTTCTGTTCAAGCGCCATCTAC | 1.05 RPM ratio (pull-down/input) |
| GATGATTGTTCTCCCAGCTGATGAATTTTGTCTCTCGAGTAAACAAATTTTCCTAATCTTTCTGTTCAAGCGCCATCTAC | 0.968 RPM ratio (pull-down/input) |
| GATGATTGTTCTCCCAGCTGATGAATTTCTGTGATCGAGTAAACAAATTTTCCTAATCTTTCTGTTCAAGCGCCATCTAC | 1.02 RPM ratio (pull-down/input) |
| GATGATTGTTCTCCCAGCTGATGAATTCTACCCCTCGAGTAAACAAATTTTCCTAATCTTTCTGTTCAAGCGCCATCTAC | 0.797 RPM ratio (pull-down/input) |
| GATGATTGTTCTCCCAGCTGATGAATTGTCATATTCGAGTAAACAAATTTTCCTAATCTTTCTGTTCAAGCGCCATCTAC | 1.17 RPM ratio (pull-down/input) |
